Taken from patent US20240150293A1.

- Test system: AMO-1 multiple myeloma xenografts
- experimentalDetails: Anti-tumor activity in vivo (Example D)
- Parameters: species or system SCID mice
- runConditions: 120 mpk per os once a week for 2 weeks
We begin with a simple list: items and their reported % TGI (d9).
Please give the number followed by its unit.

Examples with answers:
chemSmiles: C[C@@H](COc1ccnc2c1[C@H](C)CCC2)CN1Cc2cc(F)ccc2[C@]12CC[C@@](Nc1cccc(Cl)c1)(C(=O)O)CC2
% TGI (d9): 66.8%
//
chemSmiles: COc1cc2c(cc1Cl)C[C@H](C[C@@H](C)COc1ccnc3c1[C@H](C)CCC3)[C@]21CC[C@](Nc2cccc(Cl)c2)(C(=O)O)CC1
% TGI (d9): 66.8%
//
chemSmiles: Cc1cc2c(cc1C)[C@]1(CC[C@@](Nc3cccc(Cl)c3)(C(=O)O)CC1)[C@@H](C[C@@H](C)COc1ccnc3c1[C@H](C)CCC3)C2
% TGI (d9): 111.8%

Identify the measured % TGI (d9) of COCCOc1ccc2c(c1)[C@]1(CC[C@@](Nc3cccc(Cl)c3)(C(=O)O)CC1)[C@@H](C[C@@H](C)COc1ccnc3c1[C@H](C)CCC3)C2 for AMO-1 multiple myeloma xenografts.
51.5%

Repeat with C[C@@H](COc1ccnc2c1[C@H](C)CCC2)CN1Cc2cc(F)ccc2[C@]12CC[C@@](Nc1ccc(F)c(Cl)c1)(C(=O)O)CC2
114.1%

====

- System: AMO-1 multiple myeloma xenograft
- experimentalDetails: Quantification of the cleaved form of PARP in vivo, per os (Example C)
- Parameters: species or system SCID mice
- runConditions: 30 mpk, single dose per os, tumors recovered 16 hours after dosing
valueType: Cleaved PARP (fold to control)

Request the reported Cleaved PARP (fold to control) associated with Cc1cc2c(cc1C)[C@]1(CC[C@@](Nc3cccc(Cl)c3)(C(=O)O)CC1)[C@@H](C[C@@H](C)COc1ccnc3c1[C@H](C)CCC3)C2 [Example 854]
6.9 fold to control

Repeat with C[C@@H](COc1ccnc2c1[C@H](C)CCC2)C[C@H]1Cc2cc3c(cc2[C@]12CC[C@@](Nc1cccc(Cl)c1)(C(=O)O)CC2)OCCO3 [Example 838]
15 fold to control

====

- experimentalTarget: Cy5-labelled Mcl1 (amino acids 171-321) C286S protein (UniProtKB Q07820) (Homo sapiens (Human), UniProt Q07820, C286S)
- Sequence (Q07820 171-321 C286S): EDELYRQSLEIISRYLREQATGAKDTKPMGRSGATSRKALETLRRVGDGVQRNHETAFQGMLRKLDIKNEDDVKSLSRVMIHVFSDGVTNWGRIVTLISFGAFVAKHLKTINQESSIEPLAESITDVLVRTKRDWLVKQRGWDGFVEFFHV
- experimentalDetails: Inhibition of Mcl-1 by the fluorescence quenching assay (Example A, Method B)
- Format: binding
valueType: pKi
Interpret pKi as the negative base-10 log of the concentration measured in mol/L.

Examples with answers:
molecule: C[C@@H](COc1ccnc2c1[C@H](C)CCC2)C[C@H]1Cc2cc3c(cc2[C@]12CC[C@@](Nc1cccc(Cl)c1)(C(=O)OCOC(=O)C(C)(C)C)CC2)OCO3 [Example 942]
pKi: 7.81

molecule: C[C@@H](COc1ccnc2c1[C@H](C)CCC2)C[C@H]1Cc2cc3c(cc2[C@]12CC[C@@](Nc1cccc(Cl)c1)(C(=O)O)CC2)O[C@H](C)[C@@H](C)O3 [Example 976]
pKi: 10.79

molecule: CC1CCc2c(OC[C@H](C)C[C@H]3Cc4ccccc4[C@]34CC[C@@](Nc3cccc(Cl)c3)(C(=O)O)CC4)ccnc2C1 (some centres unmarked) [Example 650]
pKi: 8.26

molecule: Cc1cc(C(C)O)cc2c1C=C(C[C@@H](C)COc1ccnc3c1[C@H](C)CCC3)[C@]21CC[C@](Nc2cccc(Cl)c2)(C(=O)O)CC1 (single isomer, unassigned) [Example 759]
pKi: 9.52

Now consider the entry below.
Request the reported pKi associated with C[C@@H](COc1ccnc2c1[C@H](C)CCC2)CC1=Cc2c(F)c(F)ccc2[C@]12CC[C@@](Nc1cccc(Cl)c1)(C(=O)O)CC2 [Example 744]
9.47
